# measured_on: Serine/threonine-protein kinase Nek9 (Homo sapiens) (UniProt Q8TD19)
# Sequence (Q8TD19 whole entry): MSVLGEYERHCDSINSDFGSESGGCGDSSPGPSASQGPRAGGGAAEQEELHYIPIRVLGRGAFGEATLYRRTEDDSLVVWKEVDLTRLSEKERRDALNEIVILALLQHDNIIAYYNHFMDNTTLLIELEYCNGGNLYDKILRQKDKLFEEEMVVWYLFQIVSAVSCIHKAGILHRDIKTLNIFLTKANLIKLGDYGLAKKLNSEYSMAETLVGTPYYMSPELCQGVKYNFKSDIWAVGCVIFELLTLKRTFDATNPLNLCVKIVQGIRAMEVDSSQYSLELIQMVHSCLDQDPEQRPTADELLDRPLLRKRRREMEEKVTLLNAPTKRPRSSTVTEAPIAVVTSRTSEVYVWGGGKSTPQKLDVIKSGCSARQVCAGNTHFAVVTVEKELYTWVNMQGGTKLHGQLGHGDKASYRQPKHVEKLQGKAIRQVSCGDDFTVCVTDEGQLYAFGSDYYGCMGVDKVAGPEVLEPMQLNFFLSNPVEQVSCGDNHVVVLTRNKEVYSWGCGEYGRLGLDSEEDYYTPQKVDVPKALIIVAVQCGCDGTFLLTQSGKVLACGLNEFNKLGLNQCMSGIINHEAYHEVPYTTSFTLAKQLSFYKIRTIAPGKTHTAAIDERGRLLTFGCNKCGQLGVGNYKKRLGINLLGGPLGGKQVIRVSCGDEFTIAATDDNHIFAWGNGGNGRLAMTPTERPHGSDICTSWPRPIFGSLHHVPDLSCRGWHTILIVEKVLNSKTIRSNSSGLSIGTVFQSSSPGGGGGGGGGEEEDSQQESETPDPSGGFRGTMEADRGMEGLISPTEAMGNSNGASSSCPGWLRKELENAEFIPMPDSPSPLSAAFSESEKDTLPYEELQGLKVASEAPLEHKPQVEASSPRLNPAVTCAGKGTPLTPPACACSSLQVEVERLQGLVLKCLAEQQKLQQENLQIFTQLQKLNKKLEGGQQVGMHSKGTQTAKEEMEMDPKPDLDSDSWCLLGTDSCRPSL
# condition_context: at 0.1 µM
Classification by inhibition | ranges: low band: < 4%; middle band: ≥ 4% and < 7%; high band: ≥ 7%

CC(C)c1ccc(-c2cc(-c3c[nH]nc3-c3ccccn3)ccn2)cc1 ... low band
Fc1ccc(Nc2nccc(-c3c(-c4ccc(C(F)(F)F)cc4)nn4ncccc34)n2)cc1F ... middle band
CCS(=O)(=O)c1ccc(OC)c(Nc2ncc(-c3cccc(F)c3)o2)c1 ... high band
c1ccc(-c2n[nH]cc2-c2ccnc(-c3ccc(OCCn4ccnc4)cc3)c2)nc1 ... low band
CCn1c(-c2nonc2N)nc2cncc(C(=O)NCCNC)c21 ... high band
Cc1c2ccc(N(C)c3ccnc(Nc4cccc(S(N)(=O)=O)c4)n3)cc2nn1C ... high band
CS(=O)(=O)Nc1ccc(-c2cc(-c3ccccc3)cc(C(N)=O)c2N)cc1 ... low band
Cc1nnc(-c2cccc(-c3ccc(C(=O)NCC4CC4)cc3)c2)o1 ... middle band
CC1=C(C(=O)Nc2ccc3[nH]nc(C)c3c2)C(c2ccc(C(F)(F)F)cc2)CC(=O)N1 (stereo not given) ... low band

====

# Tested on: Epidermal growth factor receptor (Homo sapiens), P00533 [L858R]
# Sequence (P00533 whole entry L858R): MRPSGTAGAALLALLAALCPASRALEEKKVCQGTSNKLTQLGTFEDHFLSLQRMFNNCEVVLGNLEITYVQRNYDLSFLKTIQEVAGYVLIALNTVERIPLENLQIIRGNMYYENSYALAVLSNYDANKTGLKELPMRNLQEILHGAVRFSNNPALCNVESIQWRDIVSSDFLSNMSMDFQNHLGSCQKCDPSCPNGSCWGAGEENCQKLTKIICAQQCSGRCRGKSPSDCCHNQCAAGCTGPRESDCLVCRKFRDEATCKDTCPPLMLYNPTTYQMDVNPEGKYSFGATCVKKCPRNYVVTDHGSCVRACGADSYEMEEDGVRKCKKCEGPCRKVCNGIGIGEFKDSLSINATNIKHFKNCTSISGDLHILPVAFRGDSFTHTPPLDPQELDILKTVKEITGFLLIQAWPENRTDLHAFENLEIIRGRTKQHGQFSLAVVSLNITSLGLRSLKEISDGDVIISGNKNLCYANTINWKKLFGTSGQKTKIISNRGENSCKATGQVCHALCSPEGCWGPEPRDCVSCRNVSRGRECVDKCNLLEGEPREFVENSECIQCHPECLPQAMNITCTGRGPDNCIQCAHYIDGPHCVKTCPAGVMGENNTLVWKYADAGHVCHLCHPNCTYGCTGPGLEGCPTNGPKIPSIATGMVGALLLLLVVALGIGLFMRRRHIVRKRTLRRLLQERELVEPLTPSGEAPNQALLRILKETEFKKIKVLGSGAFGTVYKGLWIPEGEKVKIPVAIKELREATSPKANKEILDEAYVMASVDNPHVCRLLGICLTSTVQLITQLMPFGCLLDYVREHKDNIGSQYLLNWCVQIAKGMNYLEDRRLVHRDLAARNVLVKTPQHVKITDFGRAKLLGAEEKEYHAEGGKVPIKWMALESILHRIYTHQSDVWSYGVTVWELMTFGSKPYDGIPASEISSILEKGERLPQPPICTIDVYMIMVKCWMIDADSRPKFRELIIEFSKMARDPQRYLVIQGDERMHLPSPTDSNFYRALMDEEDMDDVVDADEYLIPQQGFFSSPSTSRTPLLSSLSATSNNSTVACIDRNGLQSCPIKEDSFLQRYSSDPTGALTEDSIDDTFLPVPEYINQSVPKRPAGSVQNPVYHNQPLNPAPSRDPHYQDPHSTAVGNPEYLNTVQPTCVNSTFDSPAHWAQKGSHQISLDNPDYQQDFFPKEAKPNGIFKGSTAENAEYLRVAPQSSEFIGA
# condition_context: at 1 µM
// values below are reported inhibition
reported_metric: inhibition (%)

CCOc1ccc2c(-c3ccnc(Nc4cc(OC)cc(C(F)(F)F)c4)n3)cnn2n1 ... 3.23
CCn1c(-c2nonc2N)nc2cncc(C(=O)NCCNC)c21 ... 6.79
CS(=O)(=O)CCNCc1ccc(-c2ccc3ncnc(Nc4ccc(OCc5ccccc5)cc4)c3c2)o1 ... 71.2
COC(=O)Nc1nc2cc(Oc3ccc(NC(=O)Nc4ccccc4)cc3)ccc2[nH]1 ... 4.35
CC1=C(C(=O)Nc2ccc3[nH]nc(C)c3c2)C(c2ccc(C(F)(F)F)cc2)CC(=O)N1 (stereo not given) ... 1.96

====

# measured_on: Dual specificity protein kinase CLK2 (Homo sapiens) (UniProt P49760)
# Sequence (P49760 whole entry, looked up): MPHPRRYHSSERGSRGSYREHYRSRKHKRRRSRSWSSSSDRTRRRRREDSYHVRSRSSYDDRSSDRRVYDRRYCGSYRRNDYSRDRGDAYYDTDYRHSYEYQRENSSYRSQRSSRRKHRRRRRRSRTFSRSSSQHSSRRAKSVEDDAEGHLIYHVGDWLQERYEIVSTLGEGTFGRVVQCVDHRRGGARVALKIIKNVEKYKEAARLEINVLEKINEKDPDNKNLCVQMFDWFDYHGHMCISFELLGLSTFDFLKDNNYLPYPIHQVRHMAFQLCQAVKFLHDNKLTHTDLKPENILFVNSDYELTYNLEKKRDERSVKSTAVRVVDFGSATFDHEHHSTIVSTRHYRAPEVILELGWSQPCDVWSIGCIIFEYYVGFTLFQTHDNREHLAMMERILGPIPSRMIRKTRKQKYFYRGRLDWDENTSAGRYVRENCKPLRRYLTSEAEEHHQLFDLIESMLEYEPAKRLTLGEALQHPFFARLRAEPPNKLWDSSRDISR
# condition_context: at 1 µM
reported_metric: inhibition

FC(F)(F)CNc1nccc(-c2cnn3ncccc23)n1 ... 51%
COc1ccc(Nc2ncc(-c3ccccc3)o2)cc1OC ... 5.9%
CN(c1ccc(NC(=O)NCCN2CCOCC2)cc1)c1ccnc(Nc2ccc(CS(C)(=O)=O)cc2)n1 ... 2.52%
CC1=C(C(=O)Nc2ccc3[nH]nc(C)c3c2)C(c2ccc(C(F)(F)F)cc2)CC(=O)N1 (stereo unspecified) ... 9.04%
O=C(Nc1n[nH]c2nnc(-c3cccnc3)cc12)C1CC1 ... 43.4%
CCn1c(-c2nonc2N)nc2cncc(C(=O)NCCNC)c21 ... 10.5%
c1cnn2ncc(-c3ccnc(NCCCN4CCOCC4)n3)c2c1 ... 6.81%
CC(C)c1ccc(-c2cc(-c3c[nH]nc3-c3ccccn3)ccn2)cc1 ... -0.14%
CNC(=O)c1sc(-n2cnc3cc(OC)c(OC)cc32)cc1OCc1ccccc1C(F)(F)F ... -1.57%
Cc1c2ccc(N(C)c3ccnc(Nc4cccc(S(N)(=O)=O)c4)n3)cc2nn1C ... 0.97%
CS(=O)(=O)CCNCc1ccc(-c2ccc3ncnc(Nc4ccc(OCc5cccc(C(F)(F)F)c5)cc4)c3c2)o1 ... 1.97%
COc1ccc(-c2nn3ncccc3c2-c2ccnc(Nc3ccc(F)c(F)c3)n2)cc1 ... 0.41%
Cc1cc(O)cc(C)c1/C=C/c1cncc(C(N)=O)c1 ... 2.41%
COc1c(C(N)=O)cc(-c2ccc(Cl)cc2)cc1-c1ccc(S(N)(=O)=O)cc1 ... 5.16%
CC1=C(C(=O)Nc2ccc3[nH]ncc3c2)C(c2ccc(F)cc2)N=C(c2ccc(C(F)(F)F)nc2)N1 (stereo unspecified) ... -0.11%
Cc1cc(O)cc(C)c1/C=C/c1cncc(C(=O)OC(C)(C)C)c1 ... 0.81%
COc1cc(Nc2ncc(-c3ccccc3)o2)cc(OC)c1 ... 2.12%
CCS(=O)(=O)c1ccc(OC)c(Nc2ncc(-c3cccc(F)c3)o2)c1 ... 63.1%
CCOc1ccc2c(-c3ccnc(Nc4cc(OC)cc(C(F)(F)F)c4)n3)cnn2n1 ... 96.3%
Cn1c(-c2nonc2N)nc2cnccc21 ... 10.3%
O=C(O[C@H]1CN[C@H](C#Cc2cc3ncnc(Nc4ccc5c(ccn5Cc5cc(F)ccc5F)c4)c3s2)C1)N1CCOCC1 ... 0.52%

====

# Test system: Epidermal growth factor receptor (Homo sapiens), P00533 [L858R]
# condition_context: at 1 µM
// reported inhibition for each item listed
reported_metric: inhibition (%)

CNC(=O)c1cncc(/C=C/c2ccccc2C)c1 ... 11.7
N#Cc1ccc2c(-c3ccnc(NC4CC4)n3)c(-c3ccc(F)cc3)nn2c1 ... 41.3
FC(F)(F)CNc1nccc(-c2cnn3ncccc23)n1 ... 0.26
COc1cc2c(cc1Nc1nc(Nc3cccc(F)c3C(N)=O)c3cc[nH]c3n1)N(C(=O)CN1CCN(C(C)C)CC1)CC2 ... 15.1
COc1cccc(-n2ncc3c(N/N=C/c4ccc(C(=O)NCCN(C)C)cc4)ncnc32)c1 ... 90.6
Cc1cc(O)cc(C)c1/C=C/c1cncc(C(N)=O)c1 ... 18.9
COc1cc(N2CCN(C(C)C)CC2)ccc1Nc1nc(Nc2cccc3ncccc23)c2cc[nH]c2n1 ... 3.3
O=C(O[C@H]1CN[C@H](C#Cc2cc3ncnc(Nc4ccc(OCc5cccc(F)c5)c(Cl)c4)c3s2)C1)N1CCOCC1 ... 87
CNC(=O)c1sc(-n2cnc3cc(OC)c(OC)cc32)cc1OCc1ccccc1C(F)(F)F ... -0.13

====

# measured_on: Phosphatidylinositol 4-kinase beta (Homo sapiens) (UniProt Q9UBF8)
# Sequence (Q9UBF8 2-816 limits assumed): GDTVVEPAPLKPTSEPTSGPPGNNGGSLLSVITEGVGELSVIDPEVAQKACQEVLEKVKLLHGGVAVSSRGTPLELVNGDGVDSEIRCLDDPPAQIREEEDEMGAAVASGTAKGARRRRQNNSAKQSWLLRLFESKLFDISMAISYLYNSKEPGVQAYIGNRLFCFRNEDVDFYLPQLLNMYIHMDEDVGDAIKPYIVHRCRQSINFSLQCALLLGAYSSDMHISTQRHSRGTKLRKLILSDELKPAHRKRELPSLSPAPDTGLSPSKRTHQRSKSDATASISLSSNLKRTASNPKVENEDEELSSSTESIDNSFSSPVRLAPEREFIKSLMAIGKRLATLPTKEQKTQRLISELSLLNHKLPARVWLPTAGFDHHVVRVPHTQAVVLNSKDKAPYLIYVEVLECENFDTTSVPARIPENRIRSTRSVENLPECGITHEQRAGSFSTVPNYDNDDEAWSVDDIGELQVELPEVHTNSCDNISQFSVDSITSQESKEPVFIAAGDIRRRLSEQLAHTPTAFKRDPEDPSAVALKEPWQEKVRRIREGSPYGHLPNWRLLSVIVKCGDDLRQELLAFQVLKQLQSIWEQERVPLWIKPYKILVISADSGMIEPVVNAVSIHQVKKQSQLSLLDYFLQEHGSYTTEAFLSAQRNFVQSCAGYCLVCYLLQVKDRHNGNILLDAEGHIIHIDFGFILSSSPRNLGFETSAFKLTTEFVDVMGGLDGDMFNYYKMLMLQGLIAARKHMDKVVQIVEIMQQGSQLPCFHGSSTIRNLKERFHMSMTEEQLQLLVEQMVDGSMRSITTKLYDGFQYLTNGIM
# condition_context: at 0.1 µM
reported_metric: inhibition (%)

CC1=C(C(=O)Nc2ccc3[nH]nc(C)c3c2)C(c2ccc(C(F)(F)F)cc2)CC(=O)N1 (stereo unspecified) ... 4.33
N#Cc1cccc(Nc2ncc(-c3ccccc3)o2)c1 ... -0.3
O=C1Nc2ccccc2/C1=C1\CCc2cc(O)ccc21 ... -5.42
CS(=O)(=O)CCNCc1ccoc1-c1ccc2ncnc(Nc3ccc(OCc4ccccc4)cc3)c2c1 ... 9.16
CN(C)CCNC(=O)Nc1ccc(N(C)c2ccnc(Nc3ccc(CS(C)(=O)=O)cc3)n2)cc1 ... 2.65
O=C(O[C@H]1CN[C@H](C#Cc2cc3ncnc(Nc4ccc(OCc5cccc(F)c5)c(Cl)c4)c3s2)C1)N1CCOCC1 ... -0.81

====

# measured_on: Serine/threonine-protein kinase 26 (Homo sapiens) (UniProt Q9P289)
# Sequence (Q9P289 2-416 limits assumed): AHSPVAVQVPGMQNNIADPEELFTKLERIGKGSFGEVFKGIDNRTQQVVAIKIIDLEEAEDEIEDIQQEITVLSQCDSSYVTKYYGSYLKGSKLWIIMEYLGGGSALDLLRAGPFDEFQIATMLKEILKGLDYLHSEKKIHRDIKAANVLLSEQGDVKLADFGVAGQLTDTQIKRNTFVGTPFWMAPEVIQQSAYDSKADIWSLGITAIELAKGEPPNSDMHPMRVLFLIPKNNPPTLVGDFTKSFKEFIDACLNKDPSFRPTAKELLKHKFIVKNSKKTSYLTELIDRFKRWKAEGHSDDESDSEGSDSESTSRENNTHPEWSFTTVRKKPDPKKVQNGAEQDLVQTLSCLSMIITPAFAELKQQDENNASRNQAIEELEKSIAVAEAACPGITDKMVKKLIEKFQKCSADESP
# condition_context: at 0.1 µM
# Description: GSK_PKIS: MST4 mean inhibition at 0.1 uM [Nanosyn]
# reported inhibition; entries follow
reported_metric: inhibition (%)

COC(=O)Nc1nc2ccc(Oc3ccc(NC(=O)Nc4cc(C(F)(F)F)ccc4F)cc3)cc2s1 ... 0.45
CCS(=O)(=O)c1ccc(OC)c(Nc2ncc(-c3cccc(F)c3)o2)c1 ... -0.55
Cc1cc(O)cc(C)c1/C=C/c1cncc(C(N)=O)c1 ... -0.63
NS(=O)(=O)c1cccc(N/C=C2\C(=O)Nc3ccccc32)c1 ... -1.63
NS(=O)(=O)c1ccc(N/N=C2\C(=O)Nc3cccc(CCc4ccncc4)c32)cc1 ... 10.5
Cc1cc(O)cc(C)c1/C=C/c1cncc(C(=O)OC(C)(C)C)c1 ... 0.35

====

# measured_on: CDK3/Cyclin E (Homo sapiens) (UniProt P24864+Q00526)
# Sequence (P24864 whole entry, looked up): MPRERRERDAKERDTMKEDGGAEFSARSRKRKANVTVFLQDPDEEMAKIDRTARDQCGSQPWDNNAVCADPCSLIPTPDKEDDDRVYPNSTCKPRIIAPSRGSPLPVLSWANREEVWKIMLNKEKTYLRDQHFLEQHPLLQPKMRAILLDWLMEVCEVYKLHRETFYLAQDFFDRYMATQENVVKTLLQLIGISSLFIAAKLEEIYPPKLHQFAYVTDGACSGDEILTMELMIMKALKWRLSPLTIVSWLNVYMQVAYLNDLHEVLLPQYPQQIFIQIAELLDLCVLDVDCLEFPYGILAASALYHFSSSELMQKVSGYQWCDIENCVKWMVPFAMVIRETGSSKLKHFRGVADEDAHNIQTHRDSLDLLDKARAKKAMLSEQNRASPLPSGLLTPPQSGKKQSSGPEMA
# Sequence (Q00526 whole entry, looked up): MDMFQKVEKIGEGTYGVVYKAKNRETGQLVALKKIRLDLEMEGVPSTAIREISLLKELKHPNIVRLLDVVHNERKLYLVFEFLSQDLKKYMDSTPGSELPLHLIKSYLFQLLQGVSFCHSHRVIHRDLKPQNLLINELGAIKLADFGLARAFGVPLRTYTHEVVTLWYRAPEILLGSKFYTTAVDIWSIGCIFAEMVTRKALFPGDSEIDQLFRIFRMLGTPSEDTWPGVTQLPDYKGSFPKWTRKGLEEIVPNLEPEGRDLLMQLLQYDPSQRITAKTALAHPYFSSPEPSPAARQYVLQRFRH
# condition_context: at 1 µM
reported_metric: inhibition (%)

NS(=O)(=O)c1ccc(N/N=C2\C(=O)Nc3ccc(C(=O)NCc4ccncc4)cc32)cc1 ... 96.3
COc1cc(N2CCN(C(C)C)CC2)ccc1Nc1nc(Nc2cccc3ncccc23)c2cc[nH]c2n1 ... -2.06
CN1CCC(n2cnc(-c3ccc(F)cc3)c2-c2ccnc(NCCO)n2)CC1 ... -0.43
OCCCNc1nccc(-c2c(-c3ccc(F)cc3)nn3cc(C(F)(F)F)ccc23)n1 ... 0.86
CNC(=O)c1ncccc1Nc1nc(Nc2cc3c(cc2OC)CCCN3C(=O)CN(C)C)nc2[nH]ccc12 ... 1.69
Fc1cccc(COc2ccc(Nc3ncncc3C#Cc3ccccc3)cc2Cl)c1 ... -2.37
CNC(=O)c1sc(-n2cnc3cc(OC)c(OC)cc32)cc1OCc1ccccc1C(F)(F)F ... -1.01
COc1ccc(Nc2ncc(-c3ccccc3)o2)cc1OC ... 22.2
c1cnn2ncc(-c3ccnc(NCCCN4CCOCC4)n3)c2c1 ... -0.22
CS(=O)(=O)Nc1ccc(-c2cc(-c3ccccc3)cc(C(N)=O)c2N)cc1 ... -1.91
COc1ccc(-c2nn3ncccc3c2-c2ccnc(Nc3ccc(F)c(F)c3)n2)cc1 ... 0.42
CN(c1ccc(NC(=O)NCCN2CCOCC2)cc1)c1ccnc(Nc2ccc(CS(C)(=O)=O)cc2)n1 ... 0.92
N#Cc1cccc(Nc2ncc(-c3ccccc3)o2)c1 ... 40.2
COc1ccc2ncn(-c3cc(O[C@H](C)c4ccccc4C(F)(F)F)c(C(N)=O)s3)c2c1 ... -1.57
COc1cccc(Nc2nccc(-c3cnn4ncccc34)n2)c1 ... 91.4
N#Cc1ccc2c(-c3ccnc(NC4CC4)n3)c(-c3ccc(F)cc3)nn2c1 ... -1.23
Cc1cc(O)cc(C)c1/C=C/c1cncc(C(N)=O)c1 ... 1.41
COc1cc(N2CCN(C(C)C)CC2)ccc1Nc1nc(Nc2cccc(F)c2C(=O)O)c2cc[nH]c2n1 ... -1.26
COc1cc(Nc2ncc(-c3ccccc3)o2)cc(OC)c1 ... 6.13
COc1c(C(N)=O)cc(-c2ccc(Cl)cc2)cc1-c1ccc(S(N)(=O)=O)cc1 ... -0.77
CCS(=O)(=O)c1ccc(OC)c(Nc2ncc(-c3cccc(F)c3)o2)c1 ... -2.15
